- assay target: Mesothelin (SwissProt reference Q13421-3) (Homo sapiens, UniProt Q13421 37-622)
- test name: cell-based or functional assay
Quick list: IC50 (nM), HT29 meso+ cells, MTT proliferation assay per entry.
Your answer is read as nM, so omit the unit and give the number.

Answered examples (6):
| binder | test result |
| --- | --- |
| Example 64, conjugate of anti-mesothelin antibody MF-Ta (antibody, human IgG1, lambda, V domains shown, toxophore-linker on Cys sulfur, sites not given) VH: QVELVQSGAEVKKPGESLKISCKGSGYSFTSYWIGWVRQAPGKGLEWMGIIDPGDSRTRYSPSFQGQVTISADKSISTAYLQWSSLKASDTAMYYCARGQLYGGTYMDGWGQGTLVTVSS VL: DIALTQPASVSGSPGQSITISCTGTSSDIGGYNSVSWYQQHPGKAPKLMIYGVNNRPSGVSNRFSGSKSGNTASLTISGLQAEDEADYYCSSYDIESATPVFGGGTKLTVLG | 0.11 |
| Example 66, conjugate of anti-mesothelin antibody MF-Ta (antibody, human IgG1, lambda, V domains shown, toxophore-linker on Cys sulfur, sites not given) VH: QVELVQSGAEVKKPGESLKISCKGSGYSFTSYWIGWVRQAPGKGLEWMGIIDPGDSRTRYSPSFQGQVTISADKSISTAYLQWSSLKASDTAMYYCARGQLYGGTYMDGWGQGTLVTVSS VL: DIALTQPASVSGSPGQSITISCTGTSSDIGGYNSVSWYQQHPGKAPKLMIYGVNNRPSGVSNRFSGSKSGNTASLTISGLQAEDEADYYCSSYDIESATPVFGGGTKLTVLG | 1.5 |
| Example 103, conjugate of anti-mesothelin antibody MF-Ta (antibody, human IgG1, lambda, V domains shown, toxophore-linker on Cys sulfur, sites not given) VH: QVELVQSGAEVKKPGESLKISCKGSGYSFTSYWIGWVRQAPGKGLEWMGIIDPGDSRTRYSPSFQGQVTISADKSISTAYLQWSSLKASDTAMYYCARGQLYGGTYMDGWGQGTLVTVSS VL: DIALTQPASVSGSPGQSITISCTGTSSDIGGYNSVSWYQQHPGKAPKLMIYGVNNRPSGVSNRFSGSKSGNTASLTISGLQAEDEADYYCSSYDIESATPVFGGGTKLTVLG | 10 |
| Example 158, conjugate of anti-mesothelin antibody MF-Ta (antibody, human IgG1, lambda, V domains shown, toxophore-linker, coupling residue not stated) VH: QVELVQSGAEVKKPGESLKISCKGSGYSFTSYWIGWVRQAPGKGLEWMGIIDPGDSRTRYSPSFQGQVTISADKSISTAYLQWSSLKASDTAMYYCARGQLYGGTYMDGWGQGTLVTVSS VL: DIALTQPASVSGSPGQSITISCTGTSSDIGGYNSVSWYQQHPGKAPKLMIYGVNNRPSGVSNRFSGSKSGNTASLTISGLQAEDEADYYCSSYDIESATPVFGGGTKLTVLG | 0.18 |
| Example 75, conjugate of anti-mesothelin antibody MF-Ta (antibody, human IgG1, lambda, V domains shown, toxophore-linker on Lys NH, sites not given) VH: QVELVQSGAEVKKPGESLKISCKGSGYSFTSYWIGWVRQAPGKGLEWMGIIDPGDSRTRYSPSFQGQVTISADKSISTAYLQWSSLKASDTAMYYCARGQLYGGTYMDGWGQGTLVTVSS VL: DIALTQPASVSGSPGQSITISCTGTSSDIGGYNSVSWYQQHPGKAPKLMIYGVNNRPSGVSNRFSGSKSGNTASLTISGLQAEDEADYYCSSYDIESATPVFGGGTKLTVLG | 0.2 |
| Example 100, conjugate of anti-mesothelin antibody MF-Ta (antibody, human IgG1, lambda, V domains shown, toxophore-linker on Cys sulfur, sites not given) VH: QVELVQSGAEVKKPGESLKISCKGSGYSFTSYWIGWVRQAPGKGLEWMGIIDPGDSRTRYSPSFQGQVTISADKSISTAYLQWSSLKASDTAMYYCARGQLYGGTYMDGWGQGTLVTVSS VL: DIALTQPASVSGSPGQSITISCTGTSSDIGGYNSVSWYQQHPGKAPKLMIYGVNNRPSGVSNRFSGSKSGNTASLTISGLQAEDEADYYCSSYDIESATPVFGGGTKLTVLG | 2 |

In: Fill in reported IC50 (nM), HT29 meso+ cells, MTT proliferation assay for this entry: Example 56, conjugate of anti-mesothelin antibody MF-Ta (antibody, human IgG1, lambda, V domains shown, toxophore-linker on Cys sulfur, sites not given) VH: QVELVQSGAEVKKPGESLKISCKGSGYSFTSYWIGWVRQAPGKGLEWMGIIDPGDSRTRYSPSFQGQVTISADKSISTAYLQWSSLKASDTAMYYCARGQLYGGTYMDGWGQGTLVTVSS VL: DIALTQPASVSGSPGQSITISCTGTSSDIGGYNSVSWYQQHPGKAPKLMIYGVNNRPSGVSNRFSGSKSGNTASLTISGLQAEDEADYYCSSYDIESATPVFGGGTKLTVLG
Out: 0.17

In: Quickly give me recorded IC50 (nM), HT29 meso+ cells, MTT proliferation assay for Example 94, conjugate of anti-mesothelin antibody MF-Ta (antibody, human IgG1, lambda, V domains shown, toxophore-linker on Cys sulfur, sites not given) VH: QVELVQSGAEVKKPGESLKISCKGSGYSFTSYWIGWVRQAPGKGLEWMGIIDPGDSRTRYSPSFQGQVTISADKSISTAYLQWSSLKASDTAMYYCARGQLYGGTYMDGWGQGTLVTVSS VL: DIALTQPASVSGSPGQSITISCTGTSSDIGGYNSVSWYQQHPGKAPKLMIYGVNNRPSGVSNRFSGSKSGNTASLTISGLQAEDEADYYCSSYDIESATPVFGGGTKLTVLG
Out: 0.6

In: State its IC50 (nM), HT29 meso+ cells, MTT proliferation assay for this binder: Example 139, conjugate of anti-mesothelin antibody MF-Ta (antibody, human IgG1, lambda, V domains shown, toxophore-linker on Cys sulfur, sites not given) VH: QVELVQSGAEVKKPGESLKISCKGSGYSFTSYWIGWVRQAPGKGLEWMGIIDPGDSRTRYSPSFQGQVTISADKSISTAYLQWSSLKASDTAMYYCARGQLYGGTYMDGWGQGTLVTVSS VL: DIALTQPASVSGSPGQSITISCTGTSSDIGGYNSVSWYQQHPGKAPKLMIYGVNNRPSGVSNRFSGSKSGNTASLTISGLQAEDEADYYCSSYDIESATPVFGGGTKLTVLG
Out: 70

In: Look up IC50 (nM), HT29 meso+ cells, MTT proliferation assay of Example 95, conjugate of anti-mesothelin antibody MF-Ta (antibody, human IgG1, lambda, V domains shown, toxophore-linker on Cys sulfur, sites not given) VH: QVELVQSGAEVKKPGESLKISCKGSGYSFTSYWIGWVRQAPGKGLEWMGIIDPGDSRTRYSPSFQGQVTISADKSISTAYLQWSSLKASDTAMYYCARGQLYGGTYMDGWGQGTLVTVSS VL: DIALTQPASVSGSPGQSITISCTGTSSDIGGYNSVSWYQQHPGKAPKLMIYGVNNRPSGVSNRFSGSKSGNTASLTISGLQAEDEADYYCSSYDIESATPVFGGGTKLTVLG and report it.
Out: 0.013
